Sourced from ChEMBL document CHEMBL1135916

Test system: Coxsackievirus
assay.protocol: Inhibition concentration against coxsackie virus B6
Format: functional, organism-based
Would you mind telling me the reported IC50 of each entry?

## Task # get_value(readout='IC50', item= O=C1N(CCCCCCOc2ccc(Br)cc2)CCN1c1ccncc1 )
## Result > 25 µM

## Task Same again, this time with O=C1N(CCCCCCOc2ccc(C(F)(F)F)cc2)CCN1c1ccncc1
## Result > 25 µM

###

System: Enterovirus A71
assay.protocol: Inhibition concentration against EV-71
Format: functional, organism-based
property.label: IC50 (nM)
State just the number; it will be interpreted in nM.

## Task Look at this molecule and give its reported IC50. O=C1N(CCCCCOc2ccc(-c3ccc([N+](=O)[O-])cc3)cc2)CCN1c1ccncc1
## Result 330
